- measurementTarget: rTaspase1 (Homo sapiens)
- Construct: Full-length Taspase1 was cloned from 293T cell cDNA and inserted into the Myc/Flag doubly-tagged expression vector; made in house; host or cells: E. coli BL21(DE3)
- Sequence (Q9H6P5 1-233): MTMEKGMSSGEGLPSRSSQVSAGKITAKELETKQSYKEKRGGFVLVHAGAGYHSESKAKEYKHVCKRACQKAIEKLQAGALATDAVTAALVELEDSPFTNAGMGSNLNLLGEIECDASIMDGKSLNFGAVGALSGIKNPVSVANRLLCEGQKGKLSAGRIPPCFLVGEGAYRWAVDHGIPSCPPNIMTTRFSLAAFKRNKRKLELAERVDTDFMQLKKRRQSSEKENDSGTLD
- Sequence (Q9H6P5 234-420): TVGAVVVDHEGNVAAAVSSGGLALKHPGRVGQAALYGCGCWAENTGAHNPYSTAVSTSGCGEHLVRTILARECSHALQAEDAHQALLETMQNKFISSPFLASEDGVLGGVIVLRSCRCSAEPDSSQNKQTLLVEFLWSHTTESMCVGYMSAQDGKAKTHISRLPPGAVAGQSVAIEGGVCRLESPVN
- testName: In vitro cleavage assay: labeled MLL substrate incubated with rTaspase1 and peptide inhibitor, SDS-PAGE and autoradiography
- Format: biochemical
- testConditions: 1 mM inhibitor, 5 ng rTaspase1, 20 minutes, then labeled substrate 60 minutes at 37° C.; FIG. 9
readoutLabel: inhibitory effect on the rTaspase1 enzyme (MLL substrate cleavage)

Ile-Ser-Gln-Leu-Asp (ISQLD; listed as Homo sapiens)    little inhibitory effect
KISQLD: six amino acid polypeptide based on the sequence upstream of the CS2 cleavage site of MLL (listed as Homo sapiens)    little inhibitory effect
